The origin of these recorded values is ChEMBL document CHEMBL1201862.

# Test system: SF-268
# protocol_description: NCI tumour cell line growth inhibition, 48 h
The source made the active and inactive calls. Cut-off read from the data, not from the text of the source: active = GI50 up to about 1.1 µM and inactive = higher.
# valid calls are True (active), False (inactive); nothing else

* COC(=O)CCC1(C)C2CCC1/C(=N/O)C2 (stereo not given) | False
* CSc1c(C#N)c2n(c3ccccc3[n+]2C)c2ncccc12 | False

Name the outcome recorded for CC(C)(C)C1C=C(Sc2ccccc2)C(=O)O1 (stereo not given) in the assay.
False

Name the outcome recorded for N=C(N)NCCCC(NC(=O)OCCCCCn1ccc(N)nc1=O)C(=O)O (stereo not given) in the assay.
False

Name the outcome recorded for CCCCc1c2c(nc3c1CCCC3O)CCCC2 (stereo not given) in the assay.
False

###

# System: MDA-MB-435
# protocol_description: NCI tumour cell line growth inhibition, 48 h
Structures can show the parent of a compound that is named as a salt. Calls of active or inactive are those of the source. Rule as the data show it: active = GI50 up to about 1.1 µM and inactive = higher.
# valid calls are active, inactive; nothing else

Below, 5 molecules whose answers are already recorded.
- COC/C=C\[C@@]1(O)CCCC[C@@H]1CC(OC)OC: inactive
- O=c1[nH]c(=O)n(C2OC(CO)C(O)C(O)C2O)cc1F (stereo not given): inactive
- CCN(CC)COC(=S)S: inactive
- CC(C(=O)O)C(C)(O)C(=O)O (stereo not given): inactive
- CC(C)(Cl)C(Br)CCC(C)(Cl)C(Br)CBr (stereo not given): inactive

Name the outcome recorded for C/C=C1\C[C@@H]2C(OC)Nc3cc(O)c(OC)cc3C(=O)N2C1 (stereo not given in full) in the assay.
active

Name the outcome recorded for O=C(CSc1nc2nncc-2c(O)[nH]1)c1ccc(Cl)cc1 in the assay.
inactive

Name the outcome recorded for CCN(CC)C(=S)SC1C(=O)NC(=O)NC1=O in the assay.
inactive

Name the outcome recorded for CC1CCC2C(C)C(OC(=O)CCC(=O)O)OC3OC4(C)CCC1C32OO4 (stereo not given) in the assay.
inactive

Name the outcome recorded for COC(=O)c1cc2c(n1S(=O)(=O)c1ccc(C)cc1)C(=O)C(=O)c1[nH]cc(C(=O)OCc3ccccc3)c1-2 in the assay.
active

Name the outcome recorded for CC1OC(OC2C(OC(=O)[C@]34CCC(C)(C)C[C@H]3C3=CC[C@@H]5[C@@]6(C)CC[C@H](OC7OC(C(=O)O)C(O)C(O)C7O)C(C)(C)[C@@H]6CC[C@@]5(C)[C@]3(C)C[C@H]4O)OCC(O)C2O)C(O)C(O)C1OC1OCC(OC2OCC(O)C(O)C2O)C(O)C1O (stereo not given in full) in the assay.
inactive

Name the outcome recorded for COc1c2c(cc3c1C1(O)Cc4ccc5c(c4C[N+]1(C)CC3)OCO5)OCO2 (stereo not given) in the assay.
inactive

Name the outcome recorded for CSc1nc(NC2CCCC2)c2cc[nH]c2n1 in the assay.
inactive

Name the outcome recorded for COC(=O)c1ccccc1C1CN=NC12Cc1c(ccc3c1CCC3)C2=O (stereo not given) in the assay.
inactive

Name the outcome recorded for CC1=C(C(=O)Nc2ccccc2)C(c2ccc(C3C(C(=O)Nc4ccccc4)=C(C)NC(C)=C3C(=O)Nc3ccccc3)cc2)C(C(=O)Nc2ccccc2)=C(C)N1 in the assay.
inactive

Name the outcome recorded for NC(=O)C(=CNC(=S)Nc1cccc(C(F)(F)F)c1)C(N)=O in the assay.
inactive

Name the outcome recorded for CC(C)C[C@H]1C(=O)N2CCC[C@H]2[C@]2(O)O[C@](NC(=O)[C@@H]3C=C4c5cccc6[nH]c(Br)c(c56)C[C@H]4N(C)C3)(C(C)C)C(=O)N12 [BROMOCRIPTINE MESYLATE] in the assay.
inactive

Name the outcome recorded for COc1cc(/C=C(\C#N)C(N)=C(C#N)C#N)cc(O)c1O in the assay.
inactive
